Origin of measurements: ChEMBL document CHEMBL4699649

Assay: Volume of distribution at steady state in iv dosed rat
Assay type: ADME, organism-based
Details: in vivo, read-out: Vdss
quantity: Vd (L/kg)
A number alone suffices; assume L/kg.

Exercise: Name the recorded Vd for N#Cc1ccc(OC[C@@H](N)CCNS(=O)(=O)c2ccc(Cl)cc2Cl)cc1F .
Solution: 1.8

* * *

Answer each item with its documented MRT.
Test: MRT in iv dosed rat
Type: ADME, organism-based
Settings: in vivo
A number alone suffices; assume h.

Exercise: Name the recorded MRT for C[C@](N)(CCNS(=O)(=O)c1ccc(C#N)cc1C(F)(F)F)COc1ccc(C#N)c(F)c1 .
Solution: 7

Exercise: Name the recorded MRT for N#Cc1ccc(S(=O)(=O)NCC[C@H](N)COc2ccc(C#N)c(F)c2)c(C(F)(F)F)c1 .
Solution: 6.9

Exercise: Name the recorded MRT for N#Cc1ccc(N)c(OC[C@@H](N)CCNS(=O)(=O)c2ccc(Cl)cc2Cl)c1 .
Solution: 2.3

Exercise: Name the recorded MRT for N#Cc1ccc(OC[C@@H](N)CCNS(=O)(=O)c2ccc(Cl)cc2Cl)cc1F .
Solution: 7.5
